Molecular target: SARS-CoV-2 3CLpro (Severe acute respiratory syndrome coronavirus 2)
Experiment: biochemical
Assay type: biochemical
Settings: 4 h, read-out: mean (LOPAC screen with protease)
Counter-ions that a name gives are not always drawn.
Entry flag: y if inhibition at 5 µM reaches 40%; n if it does not.

| molecule | label |
| --- | --- |
| N[C@@H](C(=O)N[C@@H]1C(=O)N2C(C(=O)O)=C(Cl)CS[C@H]12)c1ccccc1 | n |
| O=C(O)Cc1ccc(O)c(O)c1 [3,4-Dihydroxyphenylacetic acid] | y |
| O=c1c2ccccc2[se]n1-c1ccccc1 [Ebselen, reference compound] | y |
| Oc1cc2c(cc1O)[C@H]1c3ccccc3CN[C@@H]1CC2 (racemic) [Dihydrexidine hydrochloride] | y |
| CSc1ccc(C(=O)c2[nH]c(=O)[nH]c2C)cc1 | n |
| Cc1cc(O)c2c(c1)C(=O)c1cc(O)cc(O)c1C2=O | n |
| N[C@@H](CCC(=O)N[C@@H](CSN=O)C(=O)NCC(=O)O)C(=O)O [S-Nitrosoglutathione, reference compound] | y |
| O=C(O)C1=CC(=C(c2ccc(O)c(C(=O)O)c2)c2ccc(O)c(C(=O)O)c2)C=CC1=O [Aurintricarboxylic acid, reference compound] | n |
| O=C(CCc1ccc(O)cc1)c1c(O)cc(O)cc1O | n |

---

Target: SARS-CoV-2 3CLpro (Severe acute respiratory syndrome coronavirus 2)
Assay: biochemical
Type: biochemical
Design: unit not given here
Conditions: sheet LOPAC_screen_w_protease; primary screen with protease, compound at 5 µM; mean of two replicates
Where a name gives a salt, the structure may show the parent alone.

| compound | mean |
| --- | --- |
| Nc1ncnc2c1ncn2[C@@H]1O[C@H](COP(=O)(O)CP(=O)(O)OP(=O)([O-])[O-])[C@H](O)C1O.[Li+].[Li+] (stereo partly shown) | 2.729 |
| Cn1ccc2cc3c(cc21)CCN3C(=O)Nc1cccnc1 [SB 206553 hydrochloride] | 2.821 |
| CCCn1c(=O)c2c(ncn2C)n(CCC)c1=O | 3.018 |
| O=C1OC(=O)[C@H]2[C@@H]1[C@@H]1CC[C@H]2O1 | 2.796 |

---

Target: SARS-CoV-2 3CLpro (Severe acute respiratory syndrome coronavirus 2)
Experiment: biochemical
Format: biochemical
Details: 4 h, LOPAC1280 primary screen with protease, 5 µM compound, replicate 1; read-out: Replicate_1 (LOPAC_screen_w_protease)
Structures can show the parent of a compound that is named as a salt.
Classify by measured inhibition at 5 µM: fulfilled if it is equal to or exceeds 2%, not fulfilled if it is smaller.

| compound | label |
| --- | --- |
| Nc1nc2ccc(OC(F)(F)F)cc2s1 | fulfilled |
| C1COC(NC(C2CC2)C2CC2)=N1 [Rilmenidine hemifumarate] | fulfilled |
| Cc1nc2sccn2c(=O)c1CCN1CCC(=C(c2ccc(F)cc2)c2ccc(F)cc2)CC1 | fulfilled |
| COc1ccc2c(c1OC)C(=O)OC2C1c2cc3c(cc2CCN1C)OCO3 (single isomer, unassigned; (+)) [(+)-Hydrastine] | fulfilled |
| NC(=O)c1cc(N2CC2)c([N+](=O)[O-])cc1[N+](=O)[O-] | not fulfilled |
| CC(=O)OCC(=O)[C@@]1(O)CC[C@H]2[C@@H]3CCC4=CC(=O)CC[C@]4(C)[C@H]3C(=O)C[C@@]21C [Cortisone 21-acetate] | fulfilled |
| CC(C)C[C@H](NC(=O)[C@@H](O)[C@H](N)Cc1ccccc1)C(=O)O [Bestatin hydrochloride] | not fulfilled |
| c1ccc(C2CC2)c(OCC2=NCCN2)c1 [Cirazoline hydrochloride] | fulfilled |
| C1CCc2nnnn2CC1 | not fulfilled |
| O=C(O)c1cc(=O)c2ccccc2[nH]1 | fulfilled |
| CCN(CC)CCOCCOC(=O)C1(c2ccccc2)CCCC1 [Carbetapentane citrate] | fulfilled |
| Nc1nnc(-c2cccc(Cl)c2Cl)c(N)n1 | not fulfilled |
| COc1cc(OC)c(C=C2C(O)=Nc3ccccc32)c(OC)c1 | not fulfilled |
| NCCS(=O)O | fulfilled |
| NCCc1c[nH]c2ccc(O)cc12 [Serotonin hydrochloride] | fulfilled |
